System: SW872
experimentalDetails: relative viability vs DMSO control (72 h) (fraction); higher = more viable cells
conditions: 0.00017 µM
Structures can show the parent of a compound that is named as a salt.
Measured relative viability, listed per entry for reference.

[Q] Item N#CC[C@H](C1CCCC1)n1cc(-c2ncnc3[nH]ccc23)cn1 [Ruxolitinib] : provide relative viability
[A] 1.02

[Q] // fetch relative viability given entry COc1cc2nccc(Oc3ccc(NC(=O)Nc4cc(C)on4)c(Cl)c3)c2cc1OC [Tivozanib]
[A] 1.07

[Q] Supply reported relative viability belonging to this compound: COc1cccc2c1C(=O)c1c(O)c3c(c(O)c1C2=O)C[C@@](O)(C(=O)CO)C[C@@H]3O[C@H]1C[C@H](N)[C@H](O)[C@H](C)O1 [Doxorubicin Hydrochloride]
[A] 1.04
